- target: T1, DLL3 (target ligand immobilized on a SA sensor chip via streptavidin capture) (Homo sapiens (Human), UniProt Q9NYJ7 27-492, limits assumed)
- T1 sequence: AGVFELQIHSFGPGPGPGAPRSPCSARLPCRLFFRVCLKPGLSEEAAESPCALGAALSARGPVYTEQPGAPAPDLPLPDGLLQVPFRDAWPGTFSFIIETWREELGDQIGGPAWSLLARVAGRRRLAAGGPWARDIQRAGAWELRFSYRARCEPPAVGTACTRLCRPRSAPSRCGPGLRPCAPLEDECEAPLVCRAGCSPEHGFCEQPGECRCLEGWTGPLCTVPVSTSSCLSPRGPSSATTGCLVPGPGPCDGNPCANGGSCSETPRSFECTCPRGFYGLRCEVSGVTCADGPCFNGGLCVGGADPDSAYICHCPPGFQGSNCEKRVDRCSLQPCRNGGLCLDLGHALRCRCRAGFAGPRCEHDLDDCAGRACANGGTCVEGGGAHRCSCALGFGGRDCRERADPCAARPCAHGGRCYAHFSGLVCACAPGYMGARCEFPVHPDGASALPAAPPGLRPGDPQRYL
- protocol: SPR, Biacore S200, target ligand on SA chip, 25 C, 1:1 fit
Bridges are numbered along the chain shown (N, C = ends). [ ]: non-standard residue; d: D form.
valueKind: Kd
In your response, the unit should come after the numeric value.

Q: # lookup: Kd of Ac-MWHICQEWATCWP-NH2 (disulfide 5-11; SMILES CC[C@H](C)[C@H](NC(=O)[C@H](Cc1c[nH]cn1)NC(=O)[C@H](Cc1c[nH]c2ccccc12)NC(=O)[C@H](CCSC)NC(C)=O)C(=O)N[C@H]1CSSC[C@@H](C(=O)N[C@@H](Cc2c[nH]c3ccccc23)C(=O)N2CCC[C@H]2C(N)=O)NC(=O)[C@H]([C@@H](C)O)NC(=O)[C@H](C)NC(=O)[C@H](Cc2c[nH]c3ccccc23)NC(=O)[C@H](CCC(=O)O)NC(=O)[C@H](CCC(N)=O)NC1=O) [SEQ ID NO 71]
Ans: 47 nM

Q: Given the entry Ac-MWTICNNWH[dA]CWP-NH2 (disulfide 5-11; SMILES CC[C@H](C)[C@H](NC(=O)[C@@H](NC(=O)[C@H](Cc1c[nH]c2ccccc12)NC(=O)[C@H](CCSC)NC(C)=O)[C@@H](C)O)C(=O)N[C@H]1CSSC[C@@H](C(=O)N[C@@H](Cc2c[nH]c3ccccc23)C(=O)N2CCC[C@H]2C(N)=O)NC(=O)[C@@H](C)NC(=O)[C@H](Cc2c[nH]cn2)NC(=O)[C@H](Cc2c[nH]c3ccccc23)NC(=O)[C@H](CC(N)=O)NC(=O)[C@H](CC(N)=O)NC1=O) [SEQ ID NO 83] , report its measured Kd.
Ans: 320 nM
